Attribution: patent US5198451A

Test system: [^3 H]-GABA uptake
Assay: Inhibition of [^3 H]-GABA uptake in vitro (Male Wistar rat cortical tissue homogenate)
Format: biochemical
Settings: tris HCl buffer pH 7.5, 60 min at 30° C.
Counter-ions that a name gives are not always drawn.
observationType: log10 of IC50 (log10 of the value in nM)
Recall that a logarithmic scale is used here: each number is log10 of IC50 in nM.

Sample records with log10 of IC50:
O=C(O)[C@@H]1CCCN(CCOCCC(c2ccccc2)c2cccc(C(F)(F)F)c2)C1 (stereo partly drawn) [Example 18, hydrochloride]
1.63
O=C(O)[C@@H]1CCCN(CCCCCCCN(c2ccccc2)c2ccccc2)C1 [Example 8, hydrochloride]
2.35
O=C(O)[C@@H]1CCCN(CCOCCC(c2ccccc2)c2ccccc2)C1 [Example 14, hydrochloride]
1.71
O=C(O)C1=CCCN(CCOCCC(c2ccccc2)c2ccccc2)C1 [Example 16, hydrochloride]
1.69

Kindly state the measured log10 of IC50 obtained for O=C(O)[C@@H]1CCCN(CCCCCCN(c2ccccc2)c2ccccc2)C1 [Example 4, hydrochloride] with [^3 H]-GABA uptake.
2.83

Follow-up entry: O=C(O)[C@@H]1CCCN(CCOCCN(c2ccccc2)c2ccccc2)C1 [Example 2, hydrochloride]
2.03
